- experimental-context: human gut metagenome, 24 h, 2 µM; note: call rule not given here
observed-property: Bacterial Biotransformation

# compound, Bacterial Biotransformation
measured = [
    ("O=C(NCc1ccccc1)OCCO [BURAMATE]", "Compound NOT metabolized"),
    ("NS(=O)(=O)c1cc2c(cc1Cl)N=C(CSCc1ccccc1)NS2(=O)=O [BENZTHIAZIDE]", "Compound NOT metabolized"),
    ("OC(Cn1cncn1)(Cn1cncn1)c1ccc(F)cc1F [FLUCONAZOLE]", "Compound metabolized"),
    ("C=CCc1ccccc1OCC(O)CNC(C)C (stereo not given) [ALPRENOLOL]", "Compound metabolized"),
]

As a next step, examine the compound that follows.
Look up Bacterial Biotransformation for this compound: O=c1n(CCCN2CCN(c3cccc(Cl)c3)CC2)nc2ccccn12 [TRAZODONE] Compound metabolized

---

- experimental-context: human gut metagenome, 24 h, 2 µM
observed-property: Bacterial Biotransformation

# compound, experimental-result
records = [
    ("O=P(O)(O)O.c1ccc(CN(CC2=NCCN2)c2ccccc2)cc1 [ANTAZOLINE PHOSPHATE]", "Compound NOT metabolized"),
    ("CC(C)c1c(C(=O)Nc2ccccc2)c(-c2ccccc2)c(-c2ccc(F)cc2)n1CC[C@@H](O)C[C@@H](O)CC(=O)O", "Compound metabolized"),
    ("OC(CCN1CCCCC1)(c1ccccc1)C1CC2C=CC1C2 (configuration not stated)", "Compound NOT metabolized"),
    ("CN(C)CCC=C1c2ccccc2C=Cc2ccccc21", "Compound metabolized"),
    ("Nc1c2c(nc3ccccc13)CCCC2", "Compound NOT metabolized"),
    ("CCC1(c2ccc(N)cc2)CCC(=O)NC1=O (configuration not stated) [AMINOGLUTETHIMIDE]", "Compound NOT metabolized"),
    ("CCCCc1nc(Cl)c(CO)n1Cc1ccc(-c2ccccc2-c2nn[nH]n2)cc1", "Compound metabolized"),
    ("CC[C@@H](CO)NC(=O)[C@@H]1C=C2c3cccc4c3c(cn4C)C[C@H]2N(C)C1.O=C(O)/C=C\\C(=O)O [METHYSERGIDE MALEATE]", "Compound NOT metabolized"),
]

Reported Bacterial Biotransformation for C[C@@H](CO)NC(=O)[C@@H]1C=C2c3cccc4[nH]cc(c34)C[C@H]2N(C)C1.O=C(O)/C=C\C(=O)O [ERGONOVINE MALEATE] : what is it? Compound NOT metabolized

Looking for the measured Bacterial Biotransformation of Cc1cc2c(cc1S(N)(=O)=O)S(=O)(=O)CCC2 , can you help? Compound NOT metabolized

Fill blank: measured Bacterial Biotransformation of the compound CN(C)CC(c1ccc(O)cc1)C1(O)CCCCC1.O=C(O)CCC(=O)O (configuration not stated) [DESVENLAFAXINE SUCCINATE] is ____. Compound NOT metabolized

Can you share its Bacterial Biotransformation? I mean this compound: N#Cc1ccc(C(c2ccc(C#N)cc2)n2cncn2)cc1 Compound NOT metabolized

Requested field: Bacterial Biotransformation. Item: Cc1ccnc2c1NC(=O)c1cccnc1N2C1CC1 Compound NOT metabolized

---

- measurement-notes: The drug is tested on Z-025 corresponding to rabbit gut metagenome with ENA study accession number: PRJEB37062 and ENA sample accession number: ERS12561824 for biotransformation under anaerobic condition. The drug concentrations were measured over 9 timepoints collected between 0 and 24 hours of incubation by liquid-chromatography-coupled mass spectrometry (LC–MS)
- experimental-context: 2 µM
observed-property: Bacterial Biotransformation

Illustrative cases are given below, each with its answer.
# compound, experimental-result
measured = [
    ("CC[C@H](C)C(=O)O[C@H]1C[C@@H](C)C=C2C=C[C@H](C)[C@H](CC[C@@H]3C[C@@H](O)CC(=O)O3)[C@H]21 [LOVASTATIN]", "Compound metabolized"),
    ("CCCc1nn(C)c2c(=O)[nH]c(-c3cc(S(=O)(=O)N4CCN(C)CC4)ccc3OCC)nc12.O=C(O)CC(O)(CC(=O)O)C(=O)O [SILDENAFIL CITRATE]", "Compound metabolized"),
    ("Cc1ccc(-c2cc(C(F)(F)F)nn2-c2ccc(S(N)(=O)=O)cc2)cc1 [CELECOXIB]", "Compound NOT metabolized"),
    ("CCN(CC)CCOCCOC(=O)C1(c2ccccc2)CCCC1.O=C(O)CC(O)(CC(=O)O)C(=O)O [CARBETAPENTANE CITRATE]", "Compound NOT metabolized"),
    ("Br.CN(C)CCCC1(c2ccc(F)cc2)OCc2cc(C#N)ccc21 (stereo not drawn) [CITALOPRAM HYDROBROMIDE]", "Compound NOT metabolized"),
    ("CC(C)N(CCC(C(N)=O)(c1ccccc1)c1ccccn1)C(C)C.O=P(O)(O)O (stereo not drawn) [DISOPYRAMIDE PHOSPHATE]", "Compound NOT metabolized"),
    ("O=c1[nH]c2ccccc2n1C1CCN(CCCC(c2ccc(F)cc2)c2ccc(F)cc2)CC1 [PIMOZIDE]", "Compound metabolized"),
]

Which Bacterial Biotransformation is listed for O=C(O)CCc1nc(-c2ccccc2)c(-c2ccccc2)o1 [OXAPROZIN] ? Compound metabolized

Data provenance is ChEMBL document CHEMBL5724914.
